B1: F1*; the commonest letter at each place (parent)
chain: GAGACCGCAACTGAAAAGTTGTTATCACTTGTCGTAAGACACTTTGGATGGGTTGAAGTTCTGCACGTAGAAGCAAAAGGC

- Variants of: B1
- measurement.notes: fraction ligated after 30 min (ligated reads / total reads); higher = more ligase activity
- protocol.conditions: with F1*sub RNA substrate (template-directed ligation), 42 °C
measurement.label: fraction ligated
Lab note: record just the number, no unit beside it.

* G38A T49A | 0.782
* A36T T49A | 0.797
* A27G T43C | 0.806
* T44C A56C | 0.791
* C26G T43C | 0.689
* C26T C28A | 0.795
* T30C A36G | 0.823
* G55A A57G | 0.833

Q: Supply reported fraction ligated belonging to this variant: T25C A27C
Result: 0.744

Q: Identify measured fraction ligated associated with T30C T35G
Result: 0.795

Origin of the recorded values: the supplement of paper PMC6755084
